Hello, the source for this data is the nanobody polyreactivity screen of Harvey et al. (2022), in case you need it.

- Method notes: yeast display, Sf9 membrane polyspecificity reagent, FACS + sequencing; frameworks hold sequencing errors
Metric name: polyreactivity (PSR sort gate)

Entry sequence	Result
QVQLVESGGGLVQAGGSLRLSCAASGSIFLSNAIGWYRQAPGKERELVADIDWTGGDTYYADSVKGRFTISRDNAKNTVYLQMNSLKPEDTAVYYCASDYGYRNLLTEYGYWGQGTKVTVSS	low polyreactivity
QVQLVESGGGLVQAGGSLRLSCAASGSTFPYYAMGWYRQAPGKERELVATITTSGVSTYYADSVKGRFTISRDNAKNTVYLQMNSLKPEDTAVYYCAADPPGFTQYGYWGQGTQVTVSS	low polyreactivity
QVQHVESGGGLVQAGGSLRLRCAASGSIFVHNDMGWYRQAPGKERDLVAAISSGSSTNYADSVKGRFTISRDNAKNTVFLQMNSLKPEDTAVYYCAVTSPYSHGYSYWGADSRDYWGQGTQVTVSS	low polyreactivity

* * *

- Method notes: yeast display, Sf9 membrane polyspecificity reagent, FACS + sequencing; frameworks hold sequencing errors
Metric name: polyreactivity (PSR sort gate)

Entry sequence	polyreactivity (PSR sort gate)
QVQLVESGGGLVQAGGSLRLSCAASGLIFRYNTMGWYRQAPGKERELVAAITSSGVRTYYADSVKGRFTISRDNAKNTVYLQMNSLKPEDTAVYYCAAEGKSYPWPWYFDYWGQGTQVTVSS	high polyreactivity
QVQLVESGGGLVQAGGSLRLSCAASGNTFRPYAMGWYRQAPGKERELVARIRYGGGSTYYADSVKGRFTISRDNAKNTVYLQMNSLKPEDTAVYYCAVYRDQYRNFYYWGLGTQVTVSS	high polyreactivity
QVQLVESGGGLVQAGGSLRLSCAASGRIVRFYGMGWYRQAPGKERELVAAITDGCGTNYADSVKGRFSISRDNAKNTVYLQMNSLKPEDTAVYYCAADSRFVWSGEYWGQGTQVTVSS	low polyreactivity
QVQLVESGGGLVQAGGSLRLSCAASGFTFGSYAMGWYRQAPGKEREFVAAISLGGARTYYADSVKGRFTISRDNAKNTVYLQMNSLKPEDTAVYYCNARGIGRSTKWSSRDYWGQGTQVTVSS	high polyreactivity
QVQLVESGGGLVQAGGSLRLSCDASGITFASYAMGWYRQAPGKERELVAAISWGGSRTYYADSVKGRFTISRDNAKNTVYFQMNSLKPVDTAVYYCNAHTRYGPDYSYYYWGQGTQVTVSS	high polyreactivity

Then this sequence:
Query QVQLVESGGGLVQAGGSLRLSCSASGFIFITVNAMGWYRQAPGKEREFVAAITRSGTGTYYADSVKGRFTISRDHAKNTVYLQMNSLKPEDTAVYYCAADATSTGAYDYWGQGTQVTVSS yields polyreactivity (PSR sort gate) of low polyreactivity

* * *

- Method notes: yeast display, Sf9 membrane polyspecificity reagent, FACS + sequencing; frameworks hold sequencing errors
Metric name: polyreactivity (PSR sort gate)

Example cases with answers are listed next.
Entry sequence	Metric name	Result
QVQLVESGGGLVQAGGSLRLCCAASGSTFGYYAMGWYRQAPGKDRELVAVITWNGGGTYYADSVKGRFTISRDNAKNTVYLQMNSLKPEDTAVYDCAADASLYTDEYDYWGQGTQVTVSS	polyreactivity (PSR sort gate)	low polyreactivity
QVQLVESGGGLVQAGGSLRLSCAASGSIFGYYAMGWYRQAPGKEREFVAAITWNGGSTYYADSVKGRFTISRDNAKNTVYLQMNSLKPEDTAVYYCARTSYARYRNGWTYDHWGQGTQVTVSS	polyreactivity (PSR sort gate)	low polyreactivity
QVQLVESGGGLVQAGGTLRLSCAASGRTIRNYARGRYRQAPVKERELVAAITWSGGSTYYADSVKGRFTISRDNAKNTVYLQMNSLKPEDTAVYYCNVRYYTRTYNYWGQGTQVTVSS	polyreactivity (PSR sort gate)	high polyreactivity
KVQLVESGGGLVQAGGSLRLSCAASGSTFSLYTLGGYRQAPGTERELVAAITNGGSTKYADSVKGRFTISRDNAKNTDYFQMNSLKPEDTAVYYCAALYSHYYWIEYDYWGQGTQVTVST	polyreactivity (PSR sort gate)	low polyreactivity

Then this sequence:
Query QVQLVESWGGLVQAGGSLRLSCAASGSTFVVIAMGWYRLAPGKERELVAAISTSGGTTYYADSVKGRFTISRDNAKNTVYLQMNSLKPEDTAVYYCAAGGKKRDDYWGQGTQVTVSS yields polyreactivity (PSR sort gate) of high polyreactivity

* * *

- Method notes: yeast display, Sf9 membrane polyspecificity reagent, FACS + sequencing; frameworks hold sequencing errors
Metric name: polyreactivity (PSR sort gate)

Entry sequence	Metric name	Result
QVQLVESGGGLVQAGGSLRLSCPASGFTFKSYAMGWYRQAPGKERELVAAISRGGSTYYADSVKGRFTISRDNAKNTVYLQMNSLKPEDTAVYYCNKTRYSRSYYEYDYWGQGTQVTVSS	polyreactivity (PSR sort gate)	low polyreactivity
QVQLVESGGGLVQAGGSLRLSCAASGFTFVNYAMGWYRQAPGKERELVAAIRRSGSRTYYADSVKGRFTISRDNAKNTVYLQINSLKPEDTAVYYCGAVCYRLYGYWGQGTQVTVSS	polyreactivity (PSR sort gate)	low polyreactivity
QVQLVESGGGLVQAGGSLRLSCAASGRIKYNVMGWYRQAPGKEMELVAAITRSAGRTYYADSVKGRFSISRDNAKNTVYLQMNSLKPEHTGGYYCAAQAERYGYVYWGQGTQVTVSS	polyreactivity (PSR sort gate)	low polyreactivity
QVQLVESGGSLVQAGGSLRLSSAASGITFSDYAMRWYRPAPGKESELVAGITSGGSTYYADSVKGRFTISRDNAKNTVYLQMNSLKPEDSAVYYCAAVRRWKYDWGQGTQVTVSS	polyreactivity (PSR sort gate)	high polyreactivity
QVQLQESGGLVQAGGLRLSCAASGSVSYQEAMGWYRQAPGKERELVATISFGANTNYAESVKGRFTISRDNAKISLYLQMNSLQPEDTSLYYWAAECLFDDYYGYWGQGTQVTVSS	polyreactivity (PSR sort gate)	low polyreactivity
QVQLVESGGGLVQAGGSLRLSCAASGSTFTPYAMGWYRQAPGKERELVAAISSTGGITYYADSVKGRFTISRDNAKNTVYLQMNSLKPEDTAVYYCAADAYYYGYEYWGQGTQVTVSS	polyreactivity (PSR sort gate)	high polyreactivity

Query QVQLVESGGGLVQAGGSLRLSCAASGRIFYYTTMGWSRQAPGKERELVAAISVSGGSTYYADSVKGRFTISRDKAKNTVYLQRNSLKPEDTAVYYCNAKDWYFYRYDYWGQGTQVTVSS yields polyreactivity (PSR sort gate) of low polyreactivity

Query QVQLVESGGGLVQAGGSLRLTCAASGFIFVTYAMGWYRQPPGKERELVAAITNSGGTTYYADSVKGRFTISRDNAKNTVYLQMNSLKPEDTAVYYCNIPYGAETAHREFDYWGQGTQVTVSS yields polyreactivity (PSR sort gate) of low polyreactivity

Query QVQLVESGRGLVQAGGSLRLSCAASGSIFGGYGMGWYRQAPGKERELVAAITSGSSTYYADSVKGRFTISRDNAKNTVYLQMNSLKPEDTAVYYCAARPYPHSAYEGDYWGRGTQVTVSS yields polyreactivity (PSR sort gate) of low polyreactivity

Query QVQLVESGGGLVQAGGSLRLSCAASGIIFRYYAMGWYRQPPGKERELVASISRGGSTYYADSVKGRFTISRDNAKNTVYLQMNSLKPEDTAVYYCAADVYPVYLYGYEYWGQGTQVTVSS yields polyreactivity (PSR sort gate) of high polyreactivity

Query QVQLVESGAGLVQAGGSLRLSCAASGIIFSGYAMGWYTQAPGKERELVAAISYSGASTYYADSVKGRFTISRDNAKNTVYLQMNSLKPEDTAVYYCAADRRYARYWNGWRYNYWGQGTQVTVSS yields polyreactivity (PSR sort gate) of high polyreactivity

* * *

- Method notes: yeast display, Sf9 membrane polyspecificity reagent, FACS + sequencing; frameworks hold sequencing errors
Metric name: polyreactivity (PSR sort gate)

Entry sequence	polyreactivity (PSR sort gate)
QVKLVESGGGLVQAGGSLRLSCAAYGSTFTRNAMGWYRQAPGKERQLVAAITSGGSTNYADSVKGRFTISRDNAKNTVYLEMNSLKPEDTAVYYCAAGLGRYFYSWRYLYSIFDYWGQGTQVTVSS	low polyreactivity
QVQLVESCGGLVQAGGSLRLSCAASGYIFVYNAMGWYRQAHGKERELVAAISTTGGRTYYADSVKGRFTISRDNAKNTVYLQMNSLKPEDTAVYYCAARAYYARSLFGYWGQGTQVNVSS	high polyreactivity
QVQRVESGGGLVQAGGSLRLSCAASGSIIAGYPMGWSRQAPGKERELVAGIRRGGSTNYADSVKGRFTISRDNAKKTVYLQMNSLKPEDTAVYYCNAQRTRSYVLRTFDYWGQGTQVTVSS	high polyreactivity
QVQLVESGGGLVQAGGSLRLSCAASGSNFNVYVMGWYRQAPGKERELVAAISWGDGSTSYADSVKGRFTISRDHAKNTVYLQMNSLKPEDTAVYYCNRRHSYPYDYWGQGTQVTVSS	high polyreactivity

Then this sequence:
Query QVQLVESGGGLVQAGGSLRLSCAASGSTFYYAMGWYRQAPGKERELVASITFSTGSTYYADSVKGRFTISRDNAKNTVYLQMTSLKPEDTAVYYCATGVDTYSLTVEHDSWGQGTQVTVSS yields polyreactivity (PSR sort gate) of low polyreactivity
